All figures here come from the supplement of paper PMC10567573.

B1: SMARCE1 (parent)
chain: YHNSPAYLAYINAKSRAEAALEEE

# Variants of: B1
# assay.info: protein stability index of a GFP-peptide fusion (GPS, HEK-293T) (PSI 1-6); higher = more stable;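 note: lentivirally expressed fusions sorted by FACS into six bins by GFP to DsRed ratio, PSI derived from sequencing read proportions per bin multiplied by bin number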
# condition.parameters: c terminus: a fixed tail appended
Entries annotated with measured protein stability index
Write the value as a bare number.

The value of protein stability index measured for the variant A20T turned out to be 1.61
